Test system: PDGFRα
Assay type: cell-based, rat
Conditions: together with Pb (1 μM) or paraquat (5 μM)
observedProperty: effect on Pb- and paraquat-induced reductions in levels of PDGFRα

compound	measured
CC(=O)N[C@@H](CS)C(=O)O [NAC, N-acetyl-L-cysteine]	protected
O=C1N[C@H](C(=O)O)CS1 [proeysteinc, procysteine]	protected

----------
System: c-Cbl
Format: cell-based, rat
Settings: added 1 h before MeHg
observedProperty: effect on MeHg-induced c-Cbl phosphorylation

smilesNotation	systemUnderTest	measured
Cc1ccc(-c2nn(C(C)(C)C)c3ncnc(N)c23)cc1	c-Cbl	blocked
CC(C)(C)n1nc(-c2ccc(Cl)cc2)c2c(N)ncnc21	c-Cbl	blocked
CC(=O)N[C@@H](CS)C(=O)O	c-Cbl	blocked

----------
Biological target: Fyn (Rattus norvegicus, UniProt Q62844)
Construct: 250 μg of total cell lysates were immunoprecipitated with anti-Fyn antibody; endogenous in cells; host or cells: primary rat O-2A/OPCs
Sequence (Q62844 whole entry): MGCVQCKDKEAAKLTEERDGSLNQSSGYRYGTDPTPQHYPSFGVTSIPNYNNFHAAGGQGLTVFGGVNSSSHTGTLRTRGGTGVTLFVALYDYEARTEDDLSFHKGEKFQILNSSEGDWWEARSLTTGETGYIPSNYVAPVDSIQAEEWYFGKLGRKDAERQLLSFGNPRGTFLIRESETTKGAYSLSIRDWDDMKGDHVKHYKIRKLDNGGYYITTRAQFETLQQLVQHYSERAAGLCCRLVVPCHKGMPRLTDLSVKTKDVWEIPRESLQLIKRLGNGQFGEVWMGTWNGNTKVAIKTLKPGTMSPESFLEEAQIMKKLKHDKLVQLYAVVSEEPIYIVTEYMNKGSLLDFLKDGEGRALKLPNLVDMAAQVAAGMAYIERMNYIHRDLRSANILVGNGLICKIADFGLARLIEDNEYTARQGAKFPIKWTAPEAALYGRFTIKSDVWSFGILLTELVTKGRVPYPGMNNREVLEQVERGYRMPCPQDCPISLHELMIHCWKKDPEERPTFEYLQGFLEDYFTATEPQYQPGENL
Assay type: cell-based
Settings: added 1 h before MeHg

smilesNotation	effect on MeHg-induced Fyn activation
CC(=O)N[C@@H](CS)C(=O)O	blocked
CC(C)(C)n1nc(-c2ccc(Cl)cc2)c2c(N)ncnc21	blocked
Cc1ccc(-c2nn(C(C)(C)C)c3ncnc(N)c23)cc1	blocked
